Every entry's value here was drawn from the supplement of paper PMC6555819.

System: THRa homodimer (NR concentration 90 nM)
Experiment: PBM binding z-score (relative to random genomic background probes); higher = stronger binding; sequences stand for … in GC…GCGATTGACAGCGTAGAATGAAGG
Give rule met when the value for PBM binding z-score is at least 0.9. Give rule not met when it is less.

record_sequence=TAGCCTAGGTCATTCAGGGGCAAGTATAGAAAGC class="rule met"
record_sequence=CCTACTGGGCCATTCAGAGGGCATTGATCATATG class="rule not met"
record_sequence=TCTCGGAGGAAACGAAAGGTCAGAGCTCGACATC class="rule not met"
record_sequence=CCTGCTAGGTCATGGTCAGCGAATCTACAGTATG class="rule met"
record_sequence=ATATGTAGGTTAGCTGGGGTCATTCACACTAGGC class="rule met"
record_sequence=CAGCATAGGTCAGGGCCAGTATAGGAGGAACGTT class="rule not met"

====

Tested on: VDR:RXRa (NR concentration 270 nM, RXRa partner concentration 90 nM)
Assay: PBM binding z-score (relative to random genomic background probes); higher = stronger binding; sequences stand for … in GC…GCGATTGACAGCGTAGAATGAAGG
Quick reference for PBM binding z-score among some sequences
QUANTITY_MEASURED: PBM binding z-score

record_sequence=CGCACTAGGTCATCCAGGACAGTGAATACATTGA quantity_measured="PBM binding z-score" experimental_result=4.38
record_sequence=CCTAGTTGGTCAAGGTCACACCCGCTATAGGTAC quantity_measured="PBM binding z-score" experimental_result=3.99
record_sequence=AGCGAAAGGTCGAGGTGAGTATAGAGAAAGGGAA quantity_measured="PBM binding z-score" experimental_result=2.71
record_sequence=CGTCCAAGGTCAAGGTCAATGAAAGAGACTCGAA quantity_measured="PBM binding z-score" experimental_result=5.07
record_sequence=CAAACTAGGTCACAAAAGGTCAAAGTCGAATGAC quantity_measured="PBM binding z-score" experimental_result=6.51
record_sequence=CGAACTAGGTCATTGACAGGACAGTGGATAGTAA quantity_measured="PBM binding z-score" experimental_result=2.15

====

Tested on: PPARg:RXRa 90nM:30nM, anti-RXR (NR concentration 90 nM, RXRa partner concentration 30 nM)
Assay: PBM binding z-score (relative to random genomic background probes); higher = stronger binding; sequences stand for … in GC…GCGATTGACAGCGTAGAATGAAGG
Give 1 when the value for PBM binding z-score is at least 6. Give -1 when it is less.

record_sequence=TAGCCTAGGTCACATCGGGCCAGTATACGCTATA class=-1
record_sequence=AATACGGGGTCACTAGGCCAGAGTAGGTACGAAT class=1
record_sequence=CCTTACGGGTCACTCCAGGTTATATCATCGGAGT class=-1
record_sequence=CCGACTGGGGCAAGGTCACCATAACGCACAGCCA class=-1
record_sequence=CCTTACGGGTCACTCCAGGTCATAGCATCGGAGT class=-1
record_sequence=AGAATGAGGTCATACGTAGATCAGGGAAGAAAGT class=1
record_sequence=CGTCAAAGTTCAACTGAGGTAACGTAAAGCACGC class=-1
record_sequence=TAGCCTAGGTCATTCAGGGGCCACTATAGAAAGC class=-1
record_sequence=GCTTAAGGGTCAAAGGTTATAGCATGAATAGAAT class=1
record_sequence=CGTCCAAGGTCACAGAGGTCAGTGAATGCCGAGT class=-1
record_sequence=CTATGTAGGTCAAGGGGGTCATTCAGTTTGAAAG class=1

====

Test system: PXR homodimer (NR concentration 270 nM)
Experiment: PBM binding z-score (relative to random genomic background probes); higher = stronger binding; sequences stand for … in GC…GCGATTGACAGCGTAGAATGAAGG
Quick reference for PBM binding z-score among some sequences
QUANTITY_MEASURED: PBM binding z-score

record_sequence=TCTAGTTGGTCACGGAGGACACACACGACGGGTA experimental_result=0.193
record_sequence=CAAAATAGGTCACGAAAGGTCAAAGTCGAATGAC experimental_result=3.21
record_sequence=AATACAGGGTCATCTTAGGCCAGAGTACGCACAG experimental_result=1
record_sequence=CCTTAGGGGTCACTCCAGGTTATAGCATCGGAGT experimental_result=0.789
record_sequence=CGAACTACGTCATCCAGGACAGTGAATACATTGA experimental_result=0.144
record_sequence=CGAACAAGGTCATCCAGGACAGTGAATACATTGA experimental_result=7.22
record_sequence=AATACAAGGTCATCGTAGGCCAGAGTACGCACAG experimental_result=2.13
record_sequence=TCTTGTAGATCAATAGAAGTTAAGAAAGTGCGCT experimental_result=0.29
record_sequence=CTACCAAGGTCAACAAGGTCGTTGATTACTATTC experimental_result=12.6
record_sequence=AGTCAAAGTGCATCTAGGTAACGTAAGATATGCT experimental_result=0.154
record_sequence=CCTACTGGGTCAAAGGTCATTGATTCCAATGCTC experimental_result=3.3
record_sequence=ACTTACGGCTCAACGAGGTTATAGCACGCGTATA experimental_result=0.358
record_sequence=CGAACAAGGTCACCAGGACAGTGAAGAGGTTGGA experimental_result=1.1
record_sequence=CCTTAAGGGTCACGAGGTTATAGCACGACGAGCG experimental_result=0.279
record_sequence=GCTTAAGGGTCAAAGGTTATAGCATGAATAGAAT experimental_result=0.657
record_sequence=CCGAGTAGGTTACGAGGGGTCATTCAGTGCGAAT experimental_result=10.4
record_sequence=CAAACTAGGTCACTAAAGGTCAAAGTCGAATGAC experimental_result=2.87
record_sequence=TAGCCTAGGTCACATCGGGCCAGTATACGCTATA experimental_result=-0.395
record_sequence=CCGAGGAGGTTACGAGGGGGCATTCAGTGCGAAT experimental_result=6.9
record_sequence=TCTGCTAGGTCAACGTTGGTCAGCTAATCTGCTA experimental_result=-0.62
record_sequence=TAGCCTAGGTCGTTCAGGGGCCAGTATAGAAAGC experimental_result=-0.665
record_sequence=CCTCGGAGGTCAACAGGAGGTCAGAGCTGCCAGA experimental_result=1.63
record_sequence=AAAACAGGGTCATCGTAGGCCAGAGTACGCACAG experimental_result=0.625
record_sequence=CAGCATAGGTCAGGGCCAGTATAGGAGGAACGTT experimental_result=0.189
record_sequence=TCTAGTTGGTCACGGAGGGCACACACGACGGGTA experimental_result=0.255
record_sequence=CGAACGAGGTCATTGACAGGACAGTGAATAGTAA experimental_result=3.11
record_sequence=CCAGACAGGTGAGAAGGTAACTCAGCCTCGATTA experimental_result=0.138
record_sequence=ATATGTAGGTTATCTGGGGTCATTCAGACTAGGC experimental_result=6.37
record_sequence=CCTGCGAGGTCATGGTCAGCTAATCTACAGTATG experimental_result=1.06
record_sequence=CGTCAAAGTTCAAGGTCACGTAACAGAAAGCAGC experimental_result=4.18
record_sequence=GATACGGGGTCAAGGCCAGAGTACGCGTATTGAT experimental_result=1.08
record_sequence=TACCCTAGGTCATGGGCCAGTATACCACGCGAAC experimental_result=0.812
record_sequence=CGTCAAAGTTCAACTAAGGTCACGTAAAGCACGC experimental_result=12.2
record_sequence=GCTGCTAGTTCAACTGATGGTCAGCTAAAGCTCG experimental_result=-0.4
record_sequence=ATATGTAGGTTAACTGGGGTCATTCAGACTAGGC experimental_result=5.25
record_sequence=AATACAGGGTGACTAGGCCAGAGTAGGTACGAAT experimental_result=0.336
record_sequence=TGTCAATGTTCAAAGGTAACGTAAGTATCCACAC experimental_result=-0.115
record_sequence=AGAATGAGGTTACCAAAGTTCAGGGAAACGCTTG experimental_result=3.03
record_sequence=CGTCCAAGGTCTAGGTCAGTGAAAGAGACTCGAA experimental_result=-0.179
record_sequence=CCTTACGGGTTACTCCAGGTTATAGCATCGGAGT experimental_result=0.558
record_sequence=TTGCCAAGGTGAAAGGTCGTTGATGCACGCCTTG experimental_result=-0.137
record_sequence=TACCCTAGGTCATTCAGGGGCCAGTATAGAAAGC experimental_result=0.936
record_sequence=AGAATGAGATTACCAAAGATCAGGGAAACGCTTG experimental_result=-0.0511
record_sequence=CGTCAAACTTCAACTAAGGTAACGTAAAGCACGC experimental_result=0.0401
record_sequence=GATACAGGGTCAAGGTCAGAGTACGCGTATTGAT experimental_result=1.84
record_sequence=ATCGAAAGGTCAAAGGTGAGTATACCCACCCGAA experimental_result=1.6
record_sequence=ATCGAAAGGTCGACGCGGTGAGTATACACCGTTT experimental_result=-0.368
record_sequence=AGTCAAAGGTCATCTAGGTAACGTAAGATATGCT experimental_result=1.34
record_sequence=ACTCGGAGGACAAAGGTCAGGGCTACGCCAGTGA experimental_result=0.463
record_sequence=CAAACTAGGTCAAGAGGTCAAAGTTCGCTTCCCG experimental_result=5.01
record_sequence=TATCAAAGTTCAAAGGTAACGTAAGTATCCACAC experimental_result=4.87
